Provide the recorded EC50 (read off the curve) for the entries that follow.
assayed system: T1, human BCMA expressed on cells (human, UniProt Q02223 1-184)
T1 construct: the cell line is named under assay; also called wildtype human BCMA
T1 sequence: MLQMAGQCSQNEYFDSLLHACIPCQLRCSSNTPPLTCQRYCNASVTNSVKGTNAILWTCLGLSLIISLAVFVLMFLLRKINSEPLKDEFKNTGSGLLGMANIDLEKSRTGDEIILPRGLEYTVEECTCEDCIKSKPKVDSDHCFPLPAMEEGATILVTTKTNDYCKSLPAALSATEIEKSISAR
assay summary: flow cytometry, H929 cells (BCMA-expressing)

# input What does the record list as EC50 (read off the curve) for 552-LN2-E6 hIgG1 (antibody, V domains shown, Human-mouse chimeric antibody, human IgG1 format; also called [8]) VH: QIQLVQSGPELKKPGETVKISCMASGYTFTDYSVRWVKQAPGKGLEWMGWINTETGEPTYADDFKGRFAFSLETSASTAYLQINNLKNEDTATYFCAISYYYALDYWGHGTSVTVSS VL: DIVLTQSPASLTVSLGQRATISCRASKSVSTSVYSFLHWYQQKPGQPPKLLIYLASNLESGVPARFSGSGSGTDFTLNIHPVEEEDAATYYCQHSRELPRTFGGGTKLEIKR ?
# output ~0.3 mg/L

# input Another: 539-SP5-D7 hIgG1 (antibody, V domains shown, Human-mouse chimeric antibody, human IgG1 format, lambda light chain; also called [4]) VH: EVMLVDSGGNLVKPGGSLKLSCAASGFTFSNYVISWVRQTPEKRLEWVATISTVGTNTYYPDSVRGRFTISRDNAENTLYLQMSSLRSEDTAIYYCSRHKYGYDDPSYAMDYWGQGTSVTVSS VL: QLVLTQSSSASFSLGASAKLTCTLSSQHSTYTIEWYQQQPLKPPKYVMELKKDGSHSTGDGIPDRFSGSSSGADRYLSISNIQAEDEAIYICGVGDTVKEQFVYVFGGGTKVTVLG
# output ~0.3 mg/L

# input Try 539-SP1-C8 hIgG1 (antibody, V domains shown, Human-mouse chimeric antibody, human IgG1 format; also called [2]) VH: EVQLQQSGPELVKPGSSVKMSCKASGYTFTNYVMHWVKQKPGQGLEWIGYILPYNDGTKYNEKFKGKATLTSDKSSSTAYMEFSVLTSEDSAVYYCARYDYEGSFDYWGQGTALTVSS VL: DIQMTQTTSSLSASLGDRVTISCRASQDISNYLNWYQQKPDGTVKLLMCYTSRLHSGVPSRFSGSGSGTDFSLTISNLEQEDIATYFCQQGNTFPPTFGGGTKLEIKR next.
# output ~0.02 mg/L

# input Also 552-LN1-E9 hIgG1 (antibody, V domains shown, Human-mouse chimeric antibody, human IgG1 format; also called [6]) VH: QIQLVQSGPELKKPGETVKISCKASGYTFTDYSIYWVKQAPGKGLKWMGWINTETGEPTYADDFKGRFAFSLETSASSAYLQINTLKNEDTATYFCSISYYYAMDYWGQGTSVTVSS VL: DIVLTQSPASLAVSLGQRATISCRASKSVSTSGYSFLHWYQQKPGQPPKLLIYFASNLESGVPARFSGSGSGTDFTLNIHPVEEEDAATYYCQHSRELPRTFGGGTKLEIKR , if possible.
# output ~0.05 mg/L

# input // same read-out, input: 552-LN2-F8 hIgG1 (antibody, V domains shown, Human-mouse chimeric antibody, human IgG1 format; also called [9]) VH: QIQLVQSGPELKKPGETVKISCKASGYTFTDYTMYWVKQAPGKGLKWMGWINTETGEPTYADDFKGRFVFSLETSANTAYLQINNLKNEDTATYFCAISYYYGMDYWGQGTSVTVTS VL: DIILTQSPASLAVSLGQRATITCRASKSVSTSGYNFVYWYQQKPGQPPKLLIYLASNLESGVPARFSGSGSGTDFTLNIHPVEEEDAATYYCQHSRELPRTFGGGTKLEIKR
# output ~0.1 mg/L

# input What do you have for J6M0 (antibody, V domains shown, also called J6M0-hIgG1; anti-BCMA) VH: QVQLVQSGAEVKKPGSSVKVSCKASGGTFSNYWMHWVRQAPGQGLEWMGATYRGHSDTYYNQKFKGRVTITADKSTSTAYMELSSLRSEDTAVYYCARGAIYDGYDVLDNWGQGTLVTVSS VL: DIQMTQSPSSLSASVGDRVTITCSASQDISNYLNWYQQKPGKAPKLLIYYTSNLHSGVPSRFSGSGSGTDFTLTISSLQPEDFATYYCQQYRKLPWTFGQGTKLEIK ?
# output ~1 mg/L
